Reported EC50 values for a set of compounds
Target: hTRβ1 (Homo sapiens (Human), UniProt P10828)
Sequence (P10828 whole entry, looked up): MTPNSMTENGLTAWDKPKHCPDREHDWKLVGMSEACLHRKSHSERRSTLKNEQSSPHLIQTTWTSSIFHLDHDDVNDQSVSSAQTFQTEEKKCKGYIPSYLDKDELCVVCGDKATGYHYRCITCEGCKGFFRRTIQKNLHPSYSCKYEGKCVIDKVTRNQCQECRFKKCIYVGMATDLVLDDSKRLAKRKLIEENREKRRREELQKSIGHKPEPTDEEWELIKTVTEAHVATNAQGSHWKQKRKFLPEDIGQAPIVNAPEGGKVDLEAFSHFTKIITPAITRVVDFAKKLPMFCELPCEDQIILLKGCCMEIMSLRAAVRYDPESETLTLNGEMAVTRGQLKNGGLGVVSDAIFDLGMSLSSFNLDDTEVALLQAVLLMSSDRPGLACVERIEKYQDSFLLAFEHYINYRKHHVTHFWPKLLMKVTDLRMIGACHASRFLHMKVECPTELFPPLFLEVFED
Assay: TRE-driven dual luciferase transactivation assay, TRβ
Details: transiently transfected HEK293 cells; ±SEM
Protocol: The cells were trypsinized with 0.25% trypsin, then diluted to 5×10^5 cells/mL with high glucose DMEM. […] Cells were assayed for luciferase activity using the Promega DualGlo kit. […] A 50 μl volume of Stop & Glo Reagent was added per well, then the plate was read for Renilla luciferase activity. Data normalized to Renilla internal control were analyzed with GraphPad Prism v.4a using the sigmoid dose response model to generate EC50 values±SEM.

{"columns": ["smi", "EC50 [nM]"],
 "data": [
  ["CC(C)c1cc(Cc2c(Cl)cc(OCC(=O)O)cc2Cl)ccc1O", 1.24],
  ["CC(C)c1cc(Cc2c(Br)cc(OCC(=O)O)cc2Br)ccc1O", 0.88]
]}

----------
target: hTRα1 (Homo sapiens (Human)); test: TRE-driven dual luciferase transactivation assay, TRα; conditions: transiently transfected HEK293 cells; ±SEM
Sequence (P10827 other isoform, or with tags, fused parts or gaps): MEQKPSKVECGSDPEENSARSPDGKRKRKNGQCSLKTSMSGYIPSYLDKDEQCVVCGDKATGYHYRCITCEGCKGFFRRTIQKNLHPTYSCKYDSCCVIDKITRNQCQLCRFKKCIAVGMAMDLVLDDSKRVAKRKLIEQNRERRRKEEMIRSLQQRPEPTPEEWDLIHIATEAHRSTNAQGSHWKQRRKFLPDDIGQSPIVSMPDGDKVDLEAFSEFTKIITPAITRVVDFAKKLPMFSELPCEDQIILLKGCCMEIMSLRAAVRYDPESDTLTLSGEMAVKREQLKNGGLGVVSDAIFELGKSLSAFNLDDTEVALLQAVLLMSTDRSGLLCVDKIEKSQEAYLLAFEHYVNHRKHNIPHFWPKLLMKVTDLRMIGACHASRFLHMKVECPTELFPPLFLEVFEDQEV
Reported EC50 values for a set of compounds

{"columns": ["smi", "EC50 / nM"],
 "data": [
  ["CC(C)c1cc(Cc2c(Cl)cc(OCC(=O)O)cc2Cl)ccc1O", 7.82],
  ["CC(C)c1cc(Cc2c(Br)cc(OCC(=O)O)cc2Br)ccc1O", 7.96]
]}
